Where do these numbers come from? They come from patent US6423689B1.

target.under.test: N-type Ca2+ channels in IMR-32 cells (Homo sapiens)
Construct: host or cells: IMR-32 cells, differentiated with dibutyryl cAMP and bromodeoxyuridine
experiment: Inhibition of N-type calcium flux in IMR-32 cells (Indo-1 fluorescence, nitrendipine present)
Format: cell-based
condition.info: IMR-32
Description: Measurement of N-type Ca^2+ Channel Blocking Potencies of Compounds in IMR-32 Cells Using the Fluorescent Ca^2+ Indicator Indo-1 IMR-32 cells are a human tumoral cell line of neural origin. […] Calcium flux into these cells may be induced by stimulation with elevated potassium concentrations. The L-channel component of calcium flux may be blocked by adding 5 μM nitrendipine. […] Intracellular calcium concentrations are measured using the fluorescent calcium indicator Indo 1. […]
readout.kind: inhibition at 1 µM (%)

The following molecules have reported results that may help.
Record CC(C)CC(NC(=O)N1CCCCCC1)C(=O)NC(Cc1ccc(OCc2ccccc2)cc1)C(=O)N1CCCC(C)C1 (stereo not drawn) has N-type Ca2+ channels in IMR-32 cells (Homo sapiens) inhibition at 1 µM equal to 53

Record CSCCC(CO)NC(=O)[C@H](Cc1ccc(OCc2ccccc2)cc1)NC(=O)C(CC(C)C)NC(=O)N1CCCCCC1 (stereo in doubt) has N-type Ca2+ channels in IMR-32 cells (Homo sapiens) inhibition at 1 µM equal to 62

P = CC(C)C[C@H](NC(=O)N1CCCCCC1)C(=O)N[C@@H](Cc1ccc(CCC(C)(C)C)cc1)C(=O)NC(C)(C)C
Q = CC(C)C[C@H](NC(=O)N1CCCCCC1)C(=O)N[C@@H](Cc1ccc(OCc2ccccc2)cc1)C(=O)NC1CC(C)(C)NC(C)(C)C1
Which entry shows the lesser value of inhibition at 1 µM here, P or Q ? # reply format: chosen label
Q
(Q: 15%, P: 48%)

* * *

target.under.test: N-type Ca2+ channels in superior cervical ganglion (SCG) neurons (Rattus norvegicus, UniProt Q02294)
Construct: from tissue
Sequence (Q02294 whole entry): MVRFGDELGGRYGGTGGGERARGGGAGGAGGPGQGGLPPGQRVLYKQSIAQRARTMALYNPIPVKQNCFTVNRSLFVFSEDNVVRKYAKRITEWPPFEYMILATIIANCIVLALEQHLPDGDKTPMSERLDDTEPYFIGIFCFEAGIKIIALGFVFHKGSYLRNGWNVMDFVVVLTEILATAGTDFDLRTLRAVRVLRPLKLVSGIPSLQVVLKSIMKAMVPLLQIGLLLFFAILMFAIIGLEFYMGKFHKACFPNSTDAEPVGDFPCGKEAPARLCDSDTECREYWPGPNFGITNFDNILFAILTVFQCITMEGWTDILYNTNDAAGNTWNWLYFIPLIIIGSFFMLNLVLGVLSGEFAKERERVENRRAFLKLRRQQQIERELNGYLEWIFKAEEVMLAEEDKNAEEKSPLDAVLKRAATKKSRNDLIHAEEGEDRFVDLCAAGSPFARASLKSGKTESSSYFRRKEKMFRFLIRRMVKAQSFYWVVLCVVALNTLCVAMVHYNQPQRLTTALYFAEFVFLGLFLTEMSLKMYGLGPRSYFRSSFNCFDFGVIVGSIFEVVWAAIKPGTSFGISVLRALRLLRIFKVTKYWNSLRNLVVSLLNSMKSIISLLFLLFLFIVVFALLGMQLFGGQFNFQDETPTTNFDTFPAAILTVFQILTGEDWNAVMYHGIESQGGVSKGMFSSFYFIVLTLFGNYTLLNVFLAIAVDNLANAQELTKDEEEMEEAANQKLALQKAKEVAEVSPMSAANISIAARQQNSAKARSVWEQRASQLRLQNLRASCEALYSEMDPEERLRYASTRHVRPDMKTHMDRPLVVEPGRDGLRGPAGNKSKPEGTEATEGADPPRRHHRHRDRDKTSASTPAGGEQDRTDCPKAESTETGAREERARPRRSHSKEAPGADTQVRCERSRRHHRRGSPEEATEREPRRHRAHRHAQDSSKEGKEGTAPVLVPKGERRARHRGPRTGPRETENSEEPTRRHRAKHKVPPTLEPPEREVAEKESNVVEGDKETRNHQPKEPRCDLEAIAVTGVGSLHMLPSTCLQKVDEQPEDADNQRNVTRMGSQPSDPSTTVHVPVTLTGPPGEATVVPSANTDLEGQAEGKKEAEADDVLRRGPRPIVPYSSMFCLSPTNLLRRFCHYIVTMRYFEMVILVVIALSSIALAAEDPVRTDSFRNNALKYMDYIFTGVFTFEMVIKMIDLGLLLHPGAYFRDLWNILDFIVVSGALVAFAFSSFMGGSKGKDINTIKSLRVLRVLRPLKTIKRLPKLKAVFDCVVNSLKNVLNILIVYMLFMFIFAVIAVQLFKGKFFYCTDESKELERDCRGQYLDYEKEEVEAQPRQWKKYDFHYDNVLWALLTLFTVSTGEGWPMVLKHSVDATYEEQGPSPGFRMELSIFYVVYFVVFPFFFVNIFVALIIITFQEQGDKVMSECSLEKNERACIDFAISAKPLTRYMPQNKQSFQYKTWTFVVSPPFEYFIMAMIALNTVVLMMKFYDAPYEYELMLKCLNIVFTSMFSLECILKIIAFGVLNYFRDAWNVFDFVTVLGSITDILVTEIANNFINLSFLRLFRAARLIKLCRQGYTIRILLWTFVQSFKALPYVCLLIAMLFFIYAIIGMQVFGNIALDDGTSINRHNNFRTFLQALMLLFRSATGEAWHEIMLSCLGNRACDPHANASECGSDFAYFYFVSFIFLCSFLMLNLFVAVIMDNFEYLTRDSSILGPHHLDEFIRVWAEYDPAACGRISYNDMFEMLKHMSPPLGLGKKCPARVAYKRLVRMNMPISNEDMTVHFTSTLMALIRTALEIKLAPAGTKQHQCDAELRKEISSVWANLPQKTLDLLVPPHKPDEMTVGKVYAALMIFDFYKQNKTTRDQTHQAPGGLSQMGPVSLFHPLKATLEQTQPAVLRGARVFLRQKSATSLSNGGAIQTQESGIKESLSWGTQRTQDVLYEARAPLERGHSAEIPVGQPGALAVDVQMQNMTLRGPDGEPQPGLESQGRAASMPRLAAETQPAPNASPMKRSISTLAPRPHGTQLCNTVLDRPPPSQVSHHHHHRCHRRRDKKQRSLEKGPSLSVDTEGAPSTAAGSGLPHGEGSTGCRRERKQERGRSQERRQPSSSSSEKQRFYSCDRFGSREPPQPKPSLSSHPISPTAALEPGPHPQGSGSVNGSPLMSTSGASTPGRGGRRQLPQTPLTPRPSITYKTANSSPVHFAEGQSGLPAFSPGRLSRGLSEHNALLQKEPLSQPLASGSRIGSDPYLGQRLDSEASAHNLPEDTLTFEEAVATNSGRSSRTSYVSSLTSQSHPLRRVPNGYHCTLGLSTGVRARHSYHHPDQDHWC
Sequence (P54290 25-944 partner limits assumed): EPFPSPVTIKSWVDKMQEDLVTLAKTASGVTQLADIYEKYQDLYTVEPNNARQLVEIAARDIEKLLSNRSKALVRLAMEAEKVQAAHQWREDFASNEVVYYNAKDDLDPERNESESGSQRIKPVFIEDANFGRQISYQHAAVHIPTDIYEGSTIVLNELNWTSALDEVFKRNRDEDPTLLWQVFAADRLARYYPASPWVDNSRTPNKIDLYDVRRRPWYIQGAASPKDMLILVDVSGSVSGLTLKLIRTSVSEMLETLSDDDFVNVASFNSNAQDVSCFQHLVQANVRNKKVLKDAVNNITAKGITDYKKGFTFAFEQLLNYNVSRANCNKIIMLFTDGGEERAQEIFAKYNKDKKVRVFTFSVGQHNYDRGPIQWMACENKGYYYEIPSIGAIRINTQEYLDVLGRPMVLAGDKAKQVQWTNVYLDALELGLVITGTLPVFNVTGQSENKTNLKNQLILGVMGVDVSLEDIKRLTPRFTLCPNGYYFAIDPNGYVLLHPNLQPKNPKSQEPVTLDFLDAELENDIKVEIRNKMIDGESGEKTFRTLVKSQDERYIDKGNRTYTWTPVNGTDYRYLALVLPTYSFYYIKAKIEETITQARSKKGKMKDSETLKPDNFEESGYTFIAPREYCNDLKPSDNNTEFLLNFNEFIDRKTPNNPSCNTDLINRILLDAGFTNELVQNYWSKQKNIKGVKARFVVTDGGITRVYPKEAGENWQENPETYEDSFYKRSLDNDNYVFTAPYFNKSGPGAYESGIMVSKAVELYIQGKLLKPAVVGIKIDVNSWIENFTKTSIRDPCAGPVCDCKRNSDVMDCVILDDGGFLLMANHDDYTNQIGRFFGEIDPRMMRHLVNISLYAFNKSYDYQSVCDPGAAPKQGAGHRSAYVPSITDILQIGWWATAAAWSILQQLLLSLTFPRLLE
Sequence (P54290 945-1091 partner limits assumed): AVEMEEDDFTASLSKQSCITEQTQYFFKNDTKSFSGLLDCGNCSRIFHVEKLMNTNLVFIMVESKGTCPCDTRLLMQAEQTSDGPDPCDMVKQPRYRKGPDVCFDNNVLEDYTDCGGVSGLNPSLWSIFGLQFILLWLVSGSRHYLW
Sequence (P54287 whole entry partner): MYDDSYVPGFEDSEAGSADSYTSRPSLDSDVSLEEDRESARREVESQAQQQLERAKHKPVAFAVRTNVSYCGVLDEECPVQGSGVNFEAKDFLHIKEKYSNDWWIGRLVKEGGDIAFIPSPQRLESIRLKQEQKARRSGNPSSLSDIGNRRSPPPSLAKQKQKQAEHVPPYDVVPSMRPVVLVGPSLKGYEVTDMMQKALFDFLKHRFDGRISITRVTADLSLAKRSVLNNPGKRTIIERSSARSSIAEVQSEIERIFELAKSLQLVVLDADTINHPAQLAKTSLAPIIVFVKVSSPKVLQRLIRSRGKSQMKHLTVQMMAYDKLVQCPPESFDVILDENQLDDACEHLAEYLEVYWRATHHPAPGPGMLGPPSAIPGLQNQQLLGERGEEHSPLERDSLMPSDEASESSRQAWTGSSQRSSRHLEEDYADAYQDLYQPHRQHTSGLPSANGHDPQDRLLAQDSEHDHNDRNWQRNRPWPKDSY
experiment: Whole-cell voltage clamp, N-type Ca2+ current in SCG neurons
Type: cell-based
condition.info: 10 μM
readout.kind: inhibition at 10 µM (%)

Per the record, CC(C)C[C@H](NC(=O)N1CCCCCC1)C(=O)N[C@@H](Cc1ccc(OCc2ccccc2)cc1)C(=O)NCCCn1ccnc1 has inhibition at 10 µM of 79

I = CC(C)C[C@H](NC(=O)N1CCCCCC1)C(=O)N[C@@H](Cc1ccc(OCc2cccc(NC(=O)OC(C)(C)C)c2)cc1)C(=O)OC(C)(C)C
II = CC(C)C[C@H](NC(=O)N1CCCCCC1)C(=O)N[C@@H](Cc1ccc(OCc2ccccc2)cc1)C(=O)NC(C)(C)C
III = CC(C)(C)C[C@H](NC(=O)N1CCCCCC1)C(=O)N[C@@H](Cc1ccc(OCc2ccccc2)cc1)C(=O)NCCN1CCCCC1
IV = CC(C)(C)OC(=O)[C@H](Cc1ccc(OCc2ccccc2)cc1)NC(=O)[C@H](Cc1ccccc1)NC(=O)N1CCCCCC1
Please list these in order of increasing inhibition at 10 µM. Thank you! Note for the reader: the ranking is given by listing the labels in the order requested.
IV, III, I, II
(IV: 19%, III: 28%, I: 40%, II: 78%)

P = CCC(C)[C@H](NC(=O)N1CCCCCC1)C(=O)N[C@@H](Cc1ccc(OCc2ccccc2)cc1)C(=O)OC(C)(C)C (some centres unmarked)
Q = CC(C)CC(NC(=O)N1CCCCCC1)C(=O)NC(C)(Cc1ccc(OCc2ccccc2)cc1)C(=O)OC(C)(C)C (centres unmarked) [Example 11A]
Which entry shows the lesser value of inhibition at 10 µM here, P or Q ? # reply format: chosen label
Q

* * *

target.under.test: L-type Ca2+ channels in A10 cells (Rattus norvegicus)
Construct: which endogenously expresses L-type calcium channels
experiment: Inhibition of L-type calcium flux in A10 cells (FLIPR)
pIC50: −log10 of the molar value.
readout.kind: pIC50

The following compounds have reported results that may help.
Per the record, CC(C)C[C@H](NC(=O)N1CCCCCC1)C(=O)N[C@@H](Cc1ccc(NCc2ccccc2)cc1)C(=O)NC(C)(C)C has pIC50 of 6.04

Per the record, CC(C)C[C@H](NC(=O)N1CCCCCC1)C(=O)N[C@@H](Cc1ccc(CCc2ccccc2)cc1)C(=O)NC(C)(C)C has pIC50 of 6.26

Per the record, CC(C)C[C@H](NC(=O)N1CCCCCC1)C(=O)N[C@@H](Cc1ccc(Cc2ccccc2)cc1)C(=O)NC(C)(C)C has pIC50 of 6.85

Per the record, CC(C)C[C@H](NC(=O)N1CCCCCC1)C(=O)N[C@@H](Cc1ccc(CCC(C)(C)C)cc1)C(=O)NC(C)(C)C has pIC50 of 6.60

Per the record, CC(C)C[C@H](NC(=O)N1CCCCCC1)C(=O)N[C@@H](Cc1ccc(CCc2ccccn2)cc1)C(=O)NC(C)(C)C has pIC50 of 5.29

Per the record, CC(C)C[C@H](NC(=O)N1CCCCCC1)C(=O)N[C@@H](Cc1ccc(OCc2ccccc2)cc1)C(=O)N1CCSCC1 has pIC50 of 6.22

Per the record, CC(C)C[C@H](NC(=O)N1CCCCCC1)C(=O)N[C@@H](Cc1ccc(C#Cc2ccccn2)cc1)C(=O)NC(C)(C)C has pIC50 of 5.59

Per the record, CC(C)C[C@H](NC(=O)N1CCCCCC1)C(=O)N[C@@H](Cc1ccc(CCC2(O)CCCCC2)cc1)C(=O)NC(C)(C)C has pIC50 of 6.01

I = CC(C)C[C@H](NC(=O)N1CCCCCC1)C(=O)N[C@@H](Cc1ccc(C#CC2CCCCC2)cc1)C(=O)NC(C)(C)C
II = CC(C)(C)OC(=O)[C@H](Cc1ccc(OCc2ccccc2)cc1)NC(=O)[C@H](Cc1ccccc1)NC(=O)N1CCCCCC1
Which entry shows the lesser value of pIC50 here, I or II ? # reply format: chosen label
I

* * *

target.under.test: N-type Ca2+ channels in IMR-32 cells (Homo sapiens)
Construct: host or cells: IMR-32 cells, differentiated with dibutyryl cAMP and bromodeoxyuridine
experiment: Inhibition of N-type calcium flux in IMR-32 cells (Indo-1 fluorescence, nitrendipine present)
Format: cell-based
condition.info: 1 μM
readout.kind: Inhibition of Calcium Flux in IMR-32 Cells % Inhibition at 1 μM (%)

Per the record, CC(C)C[C@H](NC(=S)Nc1ccc(Br)cc1)C(=O)N[C@@H](Cc1ccc(OCc2ccccc2)cc1)C(=O)OC(C)(C)C (relative stereo) has Inhibition of Calcium Flux in IMR-32 Cells % Inhibition at 1 μM of 29

Per the record, CC(C)C[C@H](NC(=O)N1CCCCCC1)C(=O)N[C@@H](Cc1ccc(OCc2ccccc2)cc1)C(=O)N1CCN(c2ccc(F)cc2)CC1 (relative stereo) has Inhibition of Calcium Flux in IMR-32 Cells % Inhibition at 1 μM of 63

Per the record, CC(C)C[C@H](NC(=O)c1ccc(C(C)(C)C)cc1)C(=O)N[C@@H](Cc1ccc(OCc2ccccc2)cc1)C(=O)OC(C)(C)C (relative stereo) has Inhibition of Calcium Flux in IMR-32 Cells % Inhibition at 1 μM of 17

I = CC(C)C[C@H](NC(=O)Nc1ccc(Cl)c(C(F)(F)F)c1)C(=O)N[C@@H](Cc1ccc(OCc2ccccc2)cc1)C(=O)OC(C)(C)C (relative stereo)
II = CC(C)C[C@H](NC(=O)N1CCCCCC1)C(=O)N[C@@H](Cc1ccc(OCc2ccccc2)cc1)C(=O)NCc1ccc2c(c1)OCO2 (relative stereo)
III = CC(C)C[C@H](NS(=O)(=O)c1ccc([N+](=O)[O-])cc1)C(=O)N[C@@H](Cc1ccc(OCc2ccccc2)cc1)C(=O)OC(C)(C)C (relative stereo)
IV = COc1cc(C(=O)NC(CC(C)C)C(=O)N[C@@H](Cc2ccc(OCc3ccccc3)cc2)C(=O)OC(C)(C)C)cc(OC)c1OC (stereo in doubt)
Please list these in order of increasing Inhibition of Calcium Flux in IMR-32 Cells % Inhibition at 1 μM. Thank you! Note for the reader: the ranking is given by listing the labels in the order requested.
IV, I, II, III

* * *

target.under.test: L-type Ca2+ channels in A10 cells (Rattus norvegicus, UniProt P22002)
Construct: which endogenously expresses L-type calcium channels
experiment: Inhibition of L-type calcium flux in A10 cells (FLIPR)
readout.kind: IC50 (nM)

The following compounds have reported results that may help.
Per the record, CC(C)C[C@H](NC(=O)N1CCCCCC1)C(=O)N[C@@H](Cc1ccc(OCc2ccccc2)cc1)C(N)=O [Example 21] has IC50 of 1600

Per the record, CC(C)C[C@H](NC(=O)N1CCCCCC1)C(=O)N[C@@H](Cc1ccc(OCc2ccccc2)cc1)C(=O)OC(C)(C)C [Example 1] has IC50 of 1720

Per the record, CC(C)C[C@H](NC(=O)N1CCCCCC1)C(=O)N[C@@H](Cc1ccc(OCc2ccccc2)cc1)C(=O)NCCN1CCOCC1 [Example 186] has IC50 of 3000

A = CC(C)C[C@H](NC(=O)N1CCCCCC1)C(=O)N[C@@H](Cc1ccc(C#CC2(O)CCCCC2)cc1)C(=O)NC(C)(C)C [Example 138]
B = CC(C)C[C@H](NC(=O)N1CCCCCC1)C(=O)N[C@@H](Cc1ccc(/C=C\C2CCCCC2)cc1)C(=O)NC(C)(C)C [Example 142]
C = COc1cc(NC(=O)N[C@@H](CC(C)C)C(=O)N[C@@H](Cc2ccc(OCc3ccccc3)cc2)C(=O)OC(C)(C)C)cc(OC)c1OC (relative stereo) [Example 67]
Please list these in order of increasing IC50. Thank you! Note for the reader: the ranking is given by listing the labels in the order requested.
B, A, C
